The entries below come with measured fold reduction of pulldown relative to WT values attached.
Target: T1, wild-type glutathione S-transferase (GST)-EMD LCD fusion protein
T1 sequence (P50402 whole entry, species assumed, looked up): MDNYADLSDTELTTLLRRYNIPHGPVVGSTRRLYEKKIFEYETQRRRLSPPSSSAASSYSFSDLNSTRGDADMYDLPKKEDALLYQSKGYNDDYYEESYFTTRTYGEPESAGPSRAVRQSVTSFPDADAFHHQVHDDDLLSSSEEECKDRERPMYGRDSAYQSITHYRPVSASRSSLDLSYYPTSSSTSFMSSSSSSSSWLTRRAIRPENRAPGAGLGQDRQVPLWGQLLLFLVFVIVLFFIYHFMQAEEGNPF
Test: pull-down; WT GST-EMD LCD immobilized on glutathione resin, incubated with HA-tagged EMD LCD prey (50 nM), washed with binding buffer, eluted with GSH; anti-HA Western blot of eluent relative to input, densitometry, n = 3
Form entry: value (fold) — number only.

HA-tagged semisynthetic EMD LCD 3×D_(195-199) (domain or fragment, three D-amino acids at alternating positions, 3×D_(195-199)) RRLSPPSSSAASSYSFSDLNSTRGDADMYDLPKKEDALLYQSKGYNDDYYEESYFTTRTYGEPESAGPSRAVRQSVTSFPDADAFHHQVHDDDLLSSSEEECKDRERPMYGRDSAYQSITHYRPVSASRSSLDLSYYPTSSSTCFMSSSSSSSSWLTRRAIRPENRAPGAGLGQER ... 7.9

Given item HA-tagged semisynthetic EMD LCD 3×D_(199-203) (domain or fragment, three D-amino acids at alternating positions, 3×D_(199-203)) RRLSPPSSSAASSYSFSDLNSTRGDADMYDLPKKEDALLYQSKGYNDDYYEESYFTTRTYGEPESAGPSRAVRQSVTSFPDADAFHHQVHDDDLLSSSEEECKDRERPMYGRDSAYQSITHYRPVSASRSSLDLSYYPTSSSTCFMSSSSSSSSWLTRRAIRPENRAPGAGLGQER , the value recorded as its fold reduction of pulldown relative to WT is 6.2

For this binder ( HA-tagged semisynthetic EMD LCD 3×D_(191-195) (domain or fragment, three D-amino acids at alternating positions, 3×D_(191-195)) RRLSPPSSSAASSYSFSDLNSTRGDADMYDLPKKEDALLYQSKGYNDDYYEESYFTTRTYGEPESAGPSRAVRQSVTSFPDADAFHHQVHDDDLLSSSEEECKDRERPMYGRDSAYQSITHYRPVSASRSSLDLSYYPTSSSTCFMSSSSSSSSWLTRRAIRPENRAPGAGLGQER ), measured fold reduction of pulldown relative to WT is 8.8

// HA-tagged semisynthetic EMD LCD 3×D_(203-207) (domain or fragment, three D-amino acids at alternating positions, 3×D_(203-207)) RRLSPPSSSAASSYSFSDLNSTRGDADMYDLPKKEDALLYQSKGYNDDYYEESYFTTRTYGEPESAGPSRAVRQSVTSFPDADAFHHQVHDDDLLSSSEEECKDRERPMYGRDSAYQSITHYRPVSASRSSLDLSYYPTSSSTCFMSSSSSSSSWLTRRAIRPENRAPGAGLGQER : fold reduction of pulldown relative to WT value = 3.6
